Each entry below lists one item and its recorded normalized growth value.
# test.description: chemical genetic growth profiling, strain panel (AID 1159580);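 also: tested at 20 µM; growth read once vehicle control cultures reached saturation at 30 °C; 1 = growth at the plate median or of vehicle wells; lower values mean less growth of the strain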
# setup.conditions: S. cerevisiae deletion strains, growth OD, locus YDR150W, strain NUM1, active compounds read low
About 2,000 (36%) of roughly 5,500 compounds were called active. Inconclusive results (about 18%) are left out. This is one part of the list.
Respond with the number and no other words.

Req: Looking for the measured normalized growth of NC(N)=NC(N)=Nc1ccccc1 , can you help?
Resp: 0.998

Req: Another compound: CC(=O)OCC(=O)[C@@]1(O)CCC2C3CC[C@@H]4C[C@H](OC(C)=O)CC[C@]4(C)C3C(=O)C[C@@]21C (stereo not given in full)
Resp: 0.994

Req: How about this compound: O=C(O)c1nccnc1C(=O)O
Resp: 0.924

* * *

Listing of recorded normalized growth by entry.
# test.description: chemical genetic growth profiling, strain panel (AID 1159580)
# setup.conditions: S. cerevisiae deletion strains, growth OD, locus YNR052C, strain pop2, active compounds read low
Screen size: about 5,500 compounds; about 2,000 (36%) were called active. Not shown: some 18% with an inconclusive outcome. This is one part of the list. Where a SMILES comes first, the peptide text is derived from it. Bridges are numbered along the chain shown (N, C = ends). [ ]: non-standard residue; d: D form. The star is where a group is joined. Octanoyl(6-Me) = CCC(C)CCCCC(=O)*; Orn = NCCC[CH](N)C(=O)O; Dab = NCC[CH](N)C(=O)O

{"compound": "CCC(C)CCCCC(=O)NC(CCN)C(=O)NC(C(=O)NC(CCN)C(=O)NC1CCNC(=O)C(C(C)O)NC(=O)C(CCN)NC(=O)C(CCN)NC(=O)C(CC(C)C)NC(=O)C(Cc2ccccc2)NC(=O)C(CCN)NC1=O)C(C)O (stereo unspecified) ({Octanoyl(6-Me)}-[Dab]T[Dab][Dab][Dab]FL[Dab][Dab]T; lactam 4-C; configuration not given here)", "normalized growth": "0.979 (inactive)"}
{"compound": "CC(C)CC1NC(=O)C(CCCN)NC(=O)C(C(C)C)NC(=O)C2CCCN2C(=O)C(Cc2ccccc2)NC(=O)C(CC(C)C)NC(=O)C(CCCN)NC(=O)C(C(C)C)NC(=O)C2CCCN2C(=O)C(Cc2ccccc2)NC1=O (stereo unspecified) (cyclo(FPV[Orn]LFPV[Orn]L); configuration not given here)", "normalized growth": "0.984 (inactive)"}
{"compound": "O=C(O)c1cc(=O)c2c(Cl)cc(Cl)cc2[nH]1", "normalized growth": "1.02 (inactive)"}
{"compound": "CC(=O)NO", "normalized growth": "0.97 (inactive)"}
{"compound": "COC(=O)C[C@H]1C(C)(C)[C@@H](O)[C@@H]2CC3=C4C=C(OC)O[C@@H](c5ccoc5)[C@]4(C)CCC3[C@@]1(C)C2=O (stereo partly specified)", "normalized growth": "0.979 (inactive)"}

With those in mind, consider the next compound.
Req: Bench note: what normalized growth did O=C(O)c1cc(=O)c2cccc(O)c2[nH]1 show?
Resp: 1 (inactive)

* * *

# test.description: chemical genetic growth profiling, strain panel (AID 1159580)
# setup.conditions: S. cerevisiae deletion strains, growth OD, locus YOR119C, strain RIO1, active compounds read low
Among all 5,500 compounds or so, about 2,000 (36%) were called active. Not shown: some 18% with an inconclusive outcome. The list shows a part of the results.
endpoint: normalized growth
Write the number on its own, no unit after it.

Req: Fill blank: measured normalized growth of the compound O=C(Nc1cc2c(s1)-c1cc(Cl)ccc1SC2)Oc1ccccc1 is ____.
Resp: 0.988

Req: Now try CSc1nnc(COc2ccc(C)c3c2CCC3)n1-c1ccccc1 .
Resp: 0.992

Req: And the next one, COc1cc(OC)cc(N2C(=O)C=CC2=O)c1 ?
Resp: 0.121

Req: Next up: O=C(c1cc2c(s1)-c1ccccc1CC2)N1CCN(Cc2ccccc2)CC1
Resp: 1.1

Req: And then CCOC(=O)c1cnc2c(c(C)nn2C)c1Sc1nnc(SC)s1 , what is it?
Resp: 0.77

* * *

# test.description: chemical genetic growth profiling, strain panel (AID 1159580);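 also: tested at 20 µM; growth read once vehicle control cultures reached saturation at 30 °C; 1 = growth at the plate median or of vehicle wells; lower values mean less growth of the strain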
# setup.conditions: S. cerevisiae deletion strains, growth OD, locus YPL106C, strain sse1, active compounds read low
Among all 5,500 compounds or so, about 2,000 (36%) were called active. Roughly 18% stayed inconclusive and do not appear here. The list shows a part of the results.
Catalogue of normalized growth values

{"compound": "C=C(C)[C@H]1Cc2c(ccc3c2O[C@@H]2COc4cc(OC)c(OC)cc4[C@@H]2C3=O)O1", "value.measured": "0.977 (inactive)"}
{"compound": "CC(=O)OC[C@H]1O[C@@H](Oc2cc(OC(C)=O)c3c(=O)cc(-c4ccc(OC(C)=O)cc4)oc3c2)[C@H](OC(C)=O)[C@@H](OC(C)=O)[C@@H]1OC(C)=O", "value.measured": "1.01 (inactive)"}
{"compound": "CCc1cccc2c3c([nH]c12)C(CC)(CC(=O)O)OCC3 (centres undefined)", "value.measured": "1.03 (inactive)"}
{"compound": "NCCNCCNCCN", "value.measured": "1.02 (inactive)"}
{"compound": "OCCN1CCN(CCCN2c3ccccc3Sc3ccc(C(F)(F)F)cc32)CC1", "value.measured": "0.988 (inactive)"}

Req: Can you look up the measured normalized growth of CNC(Cc1c[nH]c2ccccc12)C(=O)O (centres undefined) for me?
Resp: 0.985 (inactive)

Req: Same again, this time with CN1CCN(CCC=C2c3ccccc3Sc3ccc(S(=O)(=O)N(C)C)cc32)CC1
Resp: 0.947 (inactive)

Req: Item: CC1(C)C=Cc2cc3ccc(=O)oc3cc2O1
Resp: 0.843 (active)

Req: Request: O=C(OC[C@H]1O[C@H](OC(=O)c2cc(O)c(O)c(OC(=O)c3cc(O)c(O)c(O)c3)c2)[C@H](OC(=O)c2cc(O)c(O)c(OC(=O)c3cc(O)c(O)c(O)c3)c2)[C@@H](OC(=O)c2cc(O)c(O)c(OC(=O)c3cc(O)c(O)c(O)c3)c2)[C@@H]1OC(=O)c1cc(O)c(O)c(OC(=O)c2cc(O)c(O)c(O)c2)c1)c1cc(O)c(O)c(OC(=O)c2cc(O)c(O)c(O)c2)c1
Resp: 0.829 (active)

Req: And what about the compound COc1cc(-c2coc3cc(O[C@@H]4O[C@H](CO)[C@@H](O)[C@H](O)[C@H]4O)c(OC)c(O)c3c2=O)cc(O)c1OC ?
Resp: 0.962 (inactive)

* * *

# test.description: chemical genetic growth profiling, strain panel (AID 1159580);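 also: tested at 20 µM; growth read once vehicle control cultures reached saturation at 30 °C; 1 = growth at the plate median or of vehicle wells; lower values mean less growth of the strain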
# setup.conditions: S. cerevisiae deletion strains, growth OD, locus YOR106W, strain vam3, active compounds read low
The campaign covered roughly 5,500 compounds. About 2,000 (36%) were called active. Another 18% or so got no clear call; they are omitted. The list shows a part of the results.
endpoint: normalized growth
// keep it numeric: no unit symbol after the value

Solved cases below.
{"compound": "NC(N)=NC(N)=Nc1ccccc1", "value.measured": 1}
{"compound": "COc1cc(O)cc(OC)c1OC", "value.measured": 1}
{"compound": "CCOc1ccc(C(=O)c2cc(O)c(OC)c(OC)c2O)cc1", "value.measured": 0.9}
{"compound": "CCCCc1nc(Cl)c(CO)n1Cc1ccc(-c2ccccc2-c2nn[nH]n2)cc1", "value.measured": 1}
{"compound": "O=c1oc2c(O)c(O)cc3c(=O)oc4c(O)c(O)cc1c4c23", "value.measured": 0.507}

Req: Recorded normalized growth of CCc1cccc2c3c([nH]c12)C(CC)(CC(=O)O)OCC3 (stereo unspecified) , please.
Resp: 0.969

* * *

Measured normalized growth values are reported for all entries that follow.
# test.description: chemical genetic growth profiling, strain panel (AID 1159580);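 also: tested at 20 µM; growth read once vehicle control cultures reached saturation at 30 °C; 1 = growth at the plate median or of vehicle wells; lower values mean less growth of the strain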
# setup.conditions: S. cerevisiae deletion strains, growth OD, locus YNL006W, strain LST8, active compounds read low
Among all 5,500 compounds or so, about 2,000 (36%) were called active. Not shown: some 18% with an inconclusive outcome. Some of the results follow.
Give only the figure.

{"compound": "OC(CSc1ccccc1)CN1CCN(c2nc(-c3ccccc3)ns2)CC1 (configuration not stated)", "normalized growth": 0.997}

Req: For the compound shown here, CN1c2ccccc2C(C)(C)C12C=Cc1cc(O)ccc1O2 (configuration not stated) , give the reported normalized growth.
Resp: 0.978

Req: Try O=C(c1cc2c(s1)-c1ccccc1CC2)N1CCN(Cc2ccccc2)CC1 next.
Resp: 1.02

Req: Same question, O=C(Nc1cccnc1)c1cc2c(s1)-c1ccccc1CC2 this time
Resp: 0.93

Req: Same question, C/C(=N/NC(=O)c1ccc(C(C)(C)C)cc1)c1ccccc1O this time
Resp: 0.976

Req: Next: S=C(N/N=C\c1cccs1)NC1CC2CCC1C2 (configuration not stated)
Resp: 0.957

Req: Same for FC(F)(F)c1cc(-c2ccc(Cl)cc2)n[nH]1
Resp: 0.935
